biological target: Glutamate NMDA receptor; test: Inhibition of NMDA receptor binding affinity in rat brain synaptosomal membrane was determined by [3H]-CGP- 39653 as radioligand; assay type: cell membranes
Property: IC50 (µM)
Hi! Could you send only the number? It should be in µM, unit omitted.

Output IC50 of O=C(O)C1CN(CCCP(=O)(O)O)CCN1 (stereo unspecified)
0.148

* * *

biological target: Glutamate NMDA receptor; assay: Inhibition of NMDA receptor binding affinity in rat brain synaptosomal membrane by using [3H]glycine as radioligand; type: cell membranes
Property: IC50

Output IC50 of O=C(O)C1CN(CCCP(=O)(O)O)CCN1 (stereo unspecified)
> 200 µM

* * *

molecular target: Glutamate NMDA receptor; assay: Inhibition of NMDA receptor binding affinity in rat brain synaptosomal membrane using [3H]glutamate as radioligand; type: cell membranes
pIC50: −log10 of the molar value.
Lab note: compare pIC50 against 6. Equal or greater, write Yes. Smaller, write No.

Worked set:
- N[C@H](Cc1cc(CP(=O)(O)O)cc(-c2cccc3ccccc23)c1)C(=O)O: Yes
- N[C@@H](Cc1cc(CP(=O)(O)O)cc(-c2ccc3ccccc3c2)c1)C(=O)O: Yes
- N[C@@H](Cc1cc(CP(=O)(O)O)cc(-c2ccccc2)c1)C(=O)O: Yes
- N[C@@H](Cc1cc(CP(=O)(O)O)cc(-c2cccc3ccccc23)c1)C(=O)O: Yes
- N[C@H](Cc1cc(CP(=O)(O)O)cc(-c2ccc3ccccc3c2)c1)C(=O)O: Yes
- N[C@@H](Cc1cc(-c2ccccc2)cc(CP(=O)(O)O)c1[N+](=O)[O-])C(=O)O: No

Reported pIC50 at or above 6? N[C@H](Cc1cc(CP(=O)(O)O)cc(-c2ccccc2)c1)C(=O)O
No

* * *

molecular target: Glutamate NMDA receptor; assay: Inhibition of NMDA receptor binding affinity in rat brain synaptosomal membrane using [3H]glycine as radioligand; type: cell membranes
Property: IC50 (µM)
Hi! Could you send only the number? It should be in µM, unit omitted.

• N[C@@H](Cc1cc(-c2ccccc2)cc(CP(=O)(O)O)c1[N+](=O)[O-])C(=O)O = 11.5

Give IC50 for N[C@@H](Cc1cc(CP(=O)(O)O)cc(-c2cccc3ccccc23)c1)C(=O)O tested on Glutamate NMDA receptor.
65.4

Give IC50 for N[C@@H](Cc1cc(CP(=O)(O)O)cc(-c2ccccc2)c1)C(=O)O tested on Glutamate NMDA receptor.
224
